Biological target: glutathione-S-transferase (GST) tagged LXRalpha LBD (ligand binding domain) (Homo sapiens)
Construct: purchased Invitrogen pv4655
Sequence (Q13133 209-447 limits assumed): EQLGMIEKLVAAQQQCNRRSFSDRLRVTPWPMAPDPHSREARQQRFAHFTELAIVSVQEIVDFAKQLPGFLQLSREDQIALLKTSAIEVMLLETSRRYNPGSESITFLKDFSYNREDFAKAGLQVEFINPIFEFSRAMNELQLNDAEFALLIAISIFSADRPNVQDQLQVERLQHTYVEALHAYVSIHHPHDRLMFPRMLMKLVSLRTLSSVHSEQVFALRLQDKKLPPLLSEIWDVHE
Experiment: biochemical
Conditions: read-out: LXR alpha actiivty at max dose, efficacy (% Emax) in relation to reference dual agonist T0901317
metric: Emax (%)

[[record]]
molecule = "CN(C)C(=O)c1ccc(OCCCCC2CCN(C(=O)C(O)(c3cccc(F)c3)C(F)(F)F)CC2)cc1Cl (single isomer, unassigned)"
resultunit = "%"
val = 41


a. CN(C)C(=O)c1ccc(OCC2(CC3CCN(C(=O)C(O)(c4ccccc4)C(F)(F)F)CC3)CC2)cc1Cl (single isomer, unassigned)
b. CN(C)C(=O)c1ccc(OCCC2CC23CCN(C(=O)C2(c4ccccc4C(F)(F)F)CCC2)CC3)cc1Cl (single isomer, unassigned)
In terms of reported Emax, does a or b have the smaller number? Please reply using the label of the selected record.
a

1. CCC(C)(C(=O)N1CCC2(CC1)C[C@H]2CCOc1ccc(C(=O)N(C)C)c(Cl)c1)c1ccccc1 (single isomer, unassigned)
2. CN(C)C(=O)c1ccc(OCC[C@@H]2C[C@@H]2C2CCN(C(=O)c3c(F)cccc3F)CC2)cc1Cl (single isomer, unassigned)
In terms of reported Emax, does 1 or 2 have the smaller number? Please reply using the label of the selected record.
2
(2: 14%, 1: 26%)

* * *

Biological target: glutathione-S-transferase (GST) tagged LXRbeta LBD (ligand binding domain) (Homo sapiens)
Construct: purchased Invitrogen pv4658
Sequence (P55055 222-460 limits assumed): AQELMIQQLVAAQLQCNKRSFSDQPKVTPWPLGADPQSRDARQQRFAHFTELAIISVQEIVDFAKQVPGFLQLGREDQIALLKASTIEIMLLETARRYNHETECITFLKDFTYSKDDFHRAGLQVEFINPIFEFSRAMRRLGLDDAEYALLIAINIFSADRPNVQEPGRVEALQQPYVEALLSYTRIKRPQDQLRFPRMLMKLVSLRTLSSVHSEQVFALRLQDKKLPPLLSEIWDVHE
Assay: LanthaScreen TR-FRET Liver X Receptor Coactivator Assay, LXR beta
Assay type: biochemical
Settings: read-out: LXR beta actiivty at max dose, efficacy (% Emax) in relation to reference dual agonist T0901317
metric: Emax (%)

[[record]]
compound = "C[C@H](CCCC1CCN(C(=O)[C@](O)(c2ccccc2)C(F)(F)F)CC1)Oc1ccc(C(=O)N(C)C)c(Cl)c1 (single isomer, unassigned) [Example 25-1]"
metric = "Emax"
val = 91

[[record]]
compound = "CN(C(=O)c1ccc(OCCCCC2CCN(C(=O)[C@](O)(c3ccccc3)C(F)(F)F)CC2)cc1Cl)[C@H]1CCOC1 (single isomer, unassigned) [Example 8-16]"
metric = "Emax"
val = 71

[[record]]
compound = "CN(C)C(=O)c1ccc(OCC(C)(C)CCC2CCN(C(=O)C(O)(c3ccccc3)C(F)(F)F)CC2)cc1Cl (single isomer, unassigned) [Example 29-1]"
metric = "Emax"
val = 48

[[record]]
compound = "CN(C)C(=O)c1ccc(OCC[C@@H]2CC23CCN(C(=O)C(C)(c2ccccc2)C2CCC2)CC3)cc1Cl (single isomer, unassigned) [Example 12-14]"
metric = "Emax"
val = 74

[[record]]
compound = "CN(C)C(=O)c1ccc(OCC2CC3(CCN(C(=O)C(O)(c4ccccc4)C(F)(F)F)CC3)C2)cc1Cl (single isomer, unassigned) [Example 33-1]"
metric = "Emax"
val = 69


1. CN(C)C(=O)c1ccc(OCCC2CC23CCN(C(=O)C(C)(C)c2ccccc2)CC3)nc1Cl (centres unmarked) [Example 15-3]
2. CC(COc1ccc(C(=O)N(C)C)c(Cl)c1)CC(C)C1CCN(C(=O)C(O)(c2ccccc2)C(F)(F)F)CC1 (single isomer, unassigned) [Example 31-1]
Which value of Emax is numerically greater: that of 1 or that of 2 ? Please reply using the label of the selected record.
1
